From: patent US4394382A

Assay: urine and electrolyte excretion, oral water load method
Assay type: in vivo
Conditions: rat, 30 mg/kg, over 5 hours, controls 3.08 ± 0.27 and (second set) 2.76 ± 0.83
Where a name gives a salt, the structure may show the parent alone.

molecule	Na excreted / mEq/kg
NS(=O)(=O)c1cc2c(cc1Cl)NC(C(Cl)Cl)NS2(=O)=O (stereo not shown) [Comparative drug II, trichlormethiazide, reference compound]	5.36
CC(C)NCC(O)COc1cccc2c1OCC(O[N+](=O)[O-])C2 (stereo not shown)	4.18
CC(C)NCC(O)COc1cccc2ccccc12 (stereo not shown) [Comparative drug I, propranolol hydrochloride, reference compound]	3.42
CC(C)NCC(O)COc1cccc2c1OCC(CO[N+](=O)[O-])C2 (stereo not shown)	3.87
